pIC50 reference
Molecular target: HLA-DR DRB1*1302 (human)
Experiment: competition vs 125I-labeled peptide, purified HLA
Reminder that pIC50 is minus the log10 of a molar concentration.

CPKYVKSNRLVLATGL (modifications not checked) [Flu.HA.318]	7.32

Value of pIC50 reported for the binder MEWLKTRPILSPLTK (modifications not checked) [Flu.M1.46] is 5.41

Given item VVWLIKKNSTYPTIKR (modifications not checked) [Flu.HA.163] , the value recorded as its pIC50 is 7.85

The measured pIC50 associated with EALMEWLKTRPILSP (modifications not checked) [Flu.M1.43] reads 6.42
